Target Entity: mu opioid receptor (Rattus norvegicus, UniProt P33535)
Sequence (P33535 whole entry): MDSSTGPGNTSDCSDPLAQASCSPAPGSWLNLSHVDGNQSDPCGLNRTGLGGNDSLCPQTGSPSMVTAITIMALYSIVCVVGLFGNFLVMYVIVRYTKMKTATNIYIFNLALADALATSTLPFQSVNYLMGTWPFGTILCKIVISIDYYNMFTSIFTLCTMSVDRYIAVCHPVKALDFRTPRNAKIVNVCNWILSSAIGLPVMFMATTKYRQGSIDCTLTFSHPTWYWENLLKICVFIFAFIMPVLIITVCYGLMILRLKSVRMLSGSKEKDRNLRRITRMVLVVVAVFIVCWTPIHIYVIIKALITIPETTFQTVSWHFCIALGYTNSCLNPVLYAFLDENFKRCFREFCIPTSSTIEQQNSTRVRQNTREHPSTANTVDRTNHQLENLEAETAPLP
Assay Explanation: Rat brain mu opioid receptor binding assay ([3H]DAMGO)
Measurement Context: Rat mu opioid receptor binding constant; rat forebrain membranes, ~0.8 nM [3H]DAMGO; read-out: MOR Ki
Label TRUE when Ki < 700 nM; otherwise FALSE.

{"Compound": "CC(=O)Nc1ccccc1-c1ccc2c(c1)Sc1ccccc1C2=C1CC2CCC(C1)N2Cc1ccoc1", "Category": "TRUE"}
{"Compound": "O=c1[nH]c(-c2ccc3c(c2)Oc2ccccc2C3=C2CC3CCC(C2)N3)no1 [Cpd 92]", "Category": "TRUE"}
{"Compound": "CCN(CC)C(=N)c1ccc2c(c1)Oc1ccccc1C2=C1CC2CCC(C1)N2", "Category": "FALSE"}
{"Compound": "c1ccc2c(c1)Oc1cc(-c3nnn[nH]3)ccc1C2=C1CC2CCC(C1)N2", "Category": "TRUE"}
{"Compound": "COC[C@H](Cc1ccccc1)NC(=O)c1ccc2c(c1)Oc1ccccc1C2=C1CC2CCC(C1)N2", "Category": "TRUE"}
{"Compound": "O=C(N1C2CCC1CC(=C1c3ccccc3Oc3cc(-c4cccnc4)ccc31)C2)C(F)(F)F [Cpd 129]", "Category": "FALSE"}
{"Compound": "CCOC(=O)N1C2CCC1CC(=C1c3ccccc3Oc3cc(C(=O)N(C)CCO)ccc31)C2", "Category": "FALSE"}
